I'd appreciate it if you could supply fraction unbound values for the items below.
# method-description: Percentage unbound in human plasma
# Type: ADME, cell-free

Input: Query (molecule): CO[C@H]1CN(c2nc(C(=O)N(C)C)c(C(=O)O)s2)CC[C@H]1NC(=O)c1[nH]c(C)c(Cl)c1Cl (racemic) ; field requested: fraction unbound
Output: 0.13

Input: Query (molecule): "CO[C@H]1CN(c2nc(C(=O)NCCN3CCOCC3)c(C(=O)O)s2)CC[C@H]1NC(=O)c1[nH]c(C)c(Cl)c1Cl" ; field requested: fraction unbound
Output: 0.054

Input: Query (molecule): "Cc1[nH]c(C(=O)N[C@@H]2CCN(c3ncc(C(=O)O)s3)CC23OCC2(CC2)CO3)c(Cl)c1Cl" ; field requested: fraction unbound
Output: 0.012

Input: Query (molecule): "CO[C@H]1CN(c2nc(C(=O)NC3COC(C)(C)OC3)c(C(=O)O)s2)CC[C@H]1NC(=O)c1[nH]c(C)c(Cl)c1Cl" ; field requested: fraction unbound
Output: 0.036

Input: Query (molecule): "CO[C@H]1CN(c2nc(C(=O)NCCN3CCCC3=O)c(C(=O)O)s2)CC[C@H]1NC(=O)c1[nH]c(C)c(Cl)c1Cl" ; field requested: fraction unbound
Output: 0.076

Input: Query (molecule): "CO[C@H]1CN(c2nc(-c3cncnc3)c(C(=O)O)s2)CC[C@H]1NC(=O)c1[nH]c(C)c(Cl)c1Cl" ; field requested: fraction unbound
Output: 0.011

Input: Query (molecule): "CO[C@H]1CN(c2nc(C(=O)NCC3(C)OCCO3)c(C(=O)O)s2)CC[C@H]1NC(=O)c1[nH]c(C)c(Cl)c1Cl" ; field requested: fraction unbound
Output: 0.032

Input: Query (molecule): "CO[C@H]1CN(c2ncc(C(=O)O)s2)CC[C@H]1NC(=O)c1[nH]c(C)c(Cl)c1Cl" ; field requested: fraction unbound
Output: 0.071

Input: Query (molecule): "CO[C@H]1CN(c2nc(C(=O)O)c(C)s2)CC[C@H]1NC(=O)c1[nH]c(C)c(Cl)c1Cl" ; field requested: fraction unbound
Output: 0.007

Input: Query (molecule): "CO[C@H]1CN(c2nc(-c3ncccn3)c(C(=O)O)s2)CC[C@H]1NC(=O)c1[nH]c(C)c(Cl)c1Cl" ; field requested: fraction unbound
Output: 0.096

Input: Query (molecule): "CO[C@H]1CN(c2nc(-c3ccncn3)c(C(=O)O)s2)CC[C@H]1NC(=O)c1[nH]c(C)c(Cl)c1Cl" ; field requested: fraction unbound
Output: 0.042

Input: Query (molecule): "CNC(=O)c1sc(N2CC[C@@H](NC(=O)c3[nH]c(C)c(Cl)c3Cl)[C@@H](OC)C2)nc1C(=O)O" ; field requested: fraction unbound
Output: < 0.01

Input: Query (molecule): "COCn1ccnc1-c1nc(N2CC[C@@H](NC(=O)c3[nH]c(C)c(Cl)c3Cl)[C@@H](OC)C2)sc1C(=O)O" ; field requested: fraction unbound
Output: 0.071

Input: Query (molecule): CO[C@H]1CN(c2nc(CO)c(C(=O)O)s2)CC[C@H]1NC(=O)c1[nH]c(C)c(Cl)c1Cl (racemic) ; field requested: fraction unbound
Output: 0.029

Input: Query (molecule): "CO[C@H]1CN(c2nc(-c3ncnn3C)c(C(=O)O)s2)CC[C@H]1NC(=O)c1[nH]c(C)c(Cl)c1Cl" ; field requested: fraction unbound
Output: 0.032

Input: Query (molecule): "C#CCO[C@H]1CN(c2ncc(C(=O)O)s2)CC[C@H]1NC(=O)c1[nH]c(C)c(Cl)c1Cl" ; field requested: fraction unbound
Output: 0.03
